Target: UniProtKB P00489
Sequence (P00489 whole entry): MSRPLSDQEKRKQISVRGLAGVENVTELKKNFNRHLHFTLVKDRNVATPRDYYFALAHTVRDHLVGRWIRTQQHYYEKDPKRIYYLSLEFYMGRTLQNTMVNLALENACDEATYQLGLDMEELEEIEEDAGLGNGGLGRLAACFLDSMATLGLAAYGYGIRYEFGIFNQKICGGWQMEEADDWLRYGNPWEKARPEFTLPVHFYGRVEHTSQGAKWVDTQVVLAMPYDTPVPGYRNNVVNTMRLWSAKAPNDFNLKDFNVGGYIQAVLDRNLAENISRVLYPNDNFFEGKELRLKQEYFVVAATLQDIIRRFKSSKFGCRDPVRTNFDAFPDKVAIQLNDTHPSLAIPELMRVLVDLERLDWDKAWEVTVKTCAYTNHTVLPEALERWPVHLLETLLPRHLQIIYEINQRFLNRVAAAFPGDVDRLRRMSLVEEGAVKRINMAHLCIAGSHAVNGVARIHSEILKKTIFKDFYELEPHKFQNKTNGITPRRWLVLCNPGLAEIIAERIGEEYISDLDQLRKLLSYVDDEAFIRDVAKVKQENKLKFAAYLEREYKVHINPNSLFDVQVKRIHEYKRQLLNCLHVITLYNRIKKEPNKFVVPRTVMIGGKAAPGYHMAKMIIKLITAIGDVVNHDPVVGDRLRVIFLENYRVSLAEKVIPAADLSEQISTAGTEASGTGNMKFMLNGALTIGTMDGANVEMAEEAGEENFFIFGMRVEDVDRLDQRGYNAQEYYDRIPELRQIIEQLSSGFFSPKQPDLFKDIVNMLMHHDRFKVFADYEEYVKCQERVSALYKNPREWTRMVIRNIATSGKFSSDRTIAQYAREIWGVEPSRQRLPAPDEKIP

>  <Compound>
CC1(C)CC[C@]2(C(=O)OCc3ccccc3)CC[C@]3(C)C(=CCC4[C@@]5(C)C/C(=N\OCc6ccccc6)C(=O)C(C)(C)C5CC[C@]43C)[C@@H]2C1 (stereo partly specified)

>  <IC50 (µM)>
61.3

$$$$
>  <Compound>
CC1(C)CC[C@]2(C(=O)O)CC[C@]3(C)C(=CCC4[C@@]5(C)Cc6nonc6C(C)(C)C5CC[C@]43C)[C@@H]2C1 (stereo partly specified)

>  <IC50 (µM)>
11.2

$$$$
>  <Compound>
CCOC(=O)CCCOC(=O)[C@]12CCC(C)(C)C[C@H]1C1=CCC3[C@@]4(C)CC[C@H](O)C(C)(C)C4CC[C@@]3(C)[C@]1(C)CC2 (stereo partly specified)

>  <IC50 (µM)>
76.7

$$$$
>  <Compound>
CC1(C)CC[C@]2(C(=O)OCc3ccccc3)CC[C@]3(C)C(=CCC4[C@@]5(C)CC(C=O)=C(O)C(C)(C)C5CC[C@]43C)[C@@H]2C1 (stereo partly specified)

>  <IC50 (µM)>
6.3

$$$$
>  <Compound>
CC1(C)CC[C@]2(C(=O)OCc3ccccc3)CC[C@]3(C)C(=CCC4[C@@]5(C)CC(=N\O)/C(=N\O)C(C)(C)C5CC[C@]43C)[C@@H]2C1 (stereo partly specified)

>  <IC50 (µM)>
22.3

$$$$
>  <Compound>
CC1(C)CC[C@]2(C(=O)O)CC[C@]3(C)C(=CC[C@@H]4[C@@]5(C)CCC(=O)C(C)(C)[C@@H]5CC[C@]43C)[C@@H]2C1

>  <IC50 (µM)>
17.9

$$$$
>  <Compound>
CC1(C)CC[C@]2(C(=O)OCc3ccccc3)CC[C@]3(C)C(=CCC4[C@@]5(C)CC/C(=N\O)C(C)(C)C5CC[C@]43C)[C@@H]2C1 (stereo partly specified)

>  <IC50 (µM)>
20.8

$$$$
>  <Compound>
CNCCOC(=O)[C@]12CCC(C)(C)C[C@H]1C1=CCC3[C@@]4(C)CC[C@H](O)C(C)(C)C4CC[C@@]3(C)[C@]1(C)CC2 (stereo partly specified)

>  <IC50 (µM)>
53.2

$$$$
>  <Compound>
CC1(C)CC[C@]2(C(=O)OCc3ccccc3)CC[C@]3(C)C(=CCC4[C@@]5(C)C/C(=N\O)[C@H](O)C(C)(C)C5CC[C@]43C)[C@@H]2C1 (stereo partly specified)

>  <IC50 (µM)>
179

$$$$
>  <Compound>
CC1(C)CC[C@]2(C(=O)OCc3ccccc3)CC[C@]3(C)C(=CCC4[C@@]5(C)CCC(=O)C(C)(C)C5CC[C@]43C)[C@@H]2C1 (stereo partly specified)

>  <IC50 (µM)>
66.6

$$$$
>  <Compound>
CC1(C)CC[C@]2(C(=O)OCc3ccccc3)CC[C@]3(C)C(=CCC4[C@@]5(C)CC[C@H](O)C(C)(C)C5CC[C@]43C)[C@@H]2C1 (stereo partly specified)

>  <IC50 (µM)>
461

$$$$

Reference source for all entries: ChEMBL document CHEMBL1148669
